Molecular target: Gal4-RORγ-LBD (Homo sapiens)
Construct: expressed in transfected cells; host or cells: HEK-293 cells (pcDNA3.1neo plasmid)
Sequence (P51449 269-508 limits assumed): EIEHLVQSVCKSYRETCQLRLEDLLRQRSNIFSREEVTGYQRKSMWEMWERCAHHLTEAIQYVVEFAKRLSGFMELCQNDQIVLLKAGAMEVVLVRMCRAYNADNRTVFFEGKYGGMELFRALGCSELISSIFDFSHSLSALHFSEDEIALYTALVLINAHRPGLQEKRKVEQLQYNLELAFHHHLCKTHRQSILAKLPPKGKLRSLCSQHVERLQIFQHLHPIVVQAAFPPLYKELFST
Experiment: Gal4-RORγ Luciferase Reporter Assay in HEK-293T Cells
Type: cell-based
Conditions: HEK-293 cells, luciferase reporter, with 2 μM ursolic acid
Description: Assay procedures and results are described below. […] The cells were harvested as described above, counted, and centrifuged to obtain the desired number of cells, then re-suspended in complete growth media at 0.75×10^6 cells/mL. […] The luciferase intensity was read on an Envision plate reader (Perkin Elmer). […] The Max Response is the upper plateau in the signal as determined by line-fit using a 4-parameter logistic model in PRISM (GraphPad).
Quick reference for EC50 among some compounds

Cc1ncccc1-c1ccc2c(c1)N(S(=O)(=O)c1cccc(C(F)(F)F)c1)C[C@H](CCC(=O)O)O2 :: 0.5 to 5 µM
O=C(NC[C@H]1CN(S(=O)(=O)c2cccc(C(F)(F)F)c2)c2cc(-c3cc(F)ccc3F)ccc2O1)C1COC1 [Compound 30Z] :: < 0.5 µM

// query Retrieve EC50 on Gal4-RORγ-LBD (Homo sapiens); query N#Cc1cccc(-c2ccc3c(c2)N(S(=O)(=O)c2cccc(C(F)(F)F)c2)C[C@H](CCC(=O)O)O3)c1
// result 0.5 to 5 µM
